# EXPERIMENTAL SYSTEM: T1, human IL-18BP (human, UniProt O95998 31-194)
# T1 construct: UniProt printed as 095998; also called hIL-18BP
# T1 sequence: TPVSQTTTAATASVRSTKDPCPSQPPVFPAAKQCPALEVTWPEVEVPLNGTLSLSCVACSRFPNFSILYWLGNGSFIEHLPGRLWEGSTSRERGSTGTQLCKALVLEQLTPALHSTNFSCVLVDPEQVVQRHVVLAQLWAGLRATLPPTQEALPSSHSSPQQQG
# ASSAY DETAILS: BLI, apparent KD
Overview of reported Kd across a group of binders:

BINDER	Kd / nM
SA301a HC-I51Y (antibody, name in Kabat numbering, V domains shown, IgG1 kappa) VH: QVQLQESGPGLVKPSQTLSLTCTVSGYSITSDYNSHWIRQPPGKGLEWIGYYHYSGSTNYNPSLKSRVTISRDTSKNQFSLKLSSVTAADTAVYYCARNYGSIYVNYFDYWGQGTLVTVSS VL: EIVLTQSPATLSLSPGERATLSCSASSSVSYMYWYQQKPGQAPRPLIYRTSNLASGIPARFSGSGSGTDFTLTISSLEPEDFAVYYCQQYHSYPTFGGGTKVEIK	1.46
SA301a HC-H52N (antibody, name in Kabat numbering, V domains shown, IgG1 kappa) VH: QVQLQESGPGLVKPSQTLSLTCTVSGYSITSDYNSHWIRQPPGKGLEWIGYINYSGSTNYNPSLKSRVTISRDTSKNQFSLKLSSVTAADTAVYYCARNYGSIYVNYFDYWGQGTLVTVSS VL: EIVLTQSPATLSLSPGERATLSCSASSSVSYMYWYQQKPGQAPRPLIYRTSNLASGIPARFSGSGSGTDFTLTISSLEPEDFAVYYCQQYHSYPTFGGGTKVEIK	1.04
SA301a HC-H52G (antibody, name in Kabat numbering, V domains shown, IgG1 kappa) VH: QVQLQESGPGLVKPSQTLSLTCTVSGYSITSDYNSHWIRQPPGKGLEWIGYIGYSGSTNYNPSLKSRVTISRDTSKNQFSLKLSSVTAADTAVYYCARNYGSIYVNYFDYWGQGTLVTVSS VL: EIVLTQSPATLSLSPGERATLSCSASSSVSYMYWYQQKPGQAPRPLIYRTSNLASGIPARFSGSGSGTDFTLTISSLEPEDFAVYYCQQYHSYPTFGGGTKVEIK	1.68
